- SYSTEM NAME: p70S6K (Homo sapiens)
- Sequence (P23443 whole entry): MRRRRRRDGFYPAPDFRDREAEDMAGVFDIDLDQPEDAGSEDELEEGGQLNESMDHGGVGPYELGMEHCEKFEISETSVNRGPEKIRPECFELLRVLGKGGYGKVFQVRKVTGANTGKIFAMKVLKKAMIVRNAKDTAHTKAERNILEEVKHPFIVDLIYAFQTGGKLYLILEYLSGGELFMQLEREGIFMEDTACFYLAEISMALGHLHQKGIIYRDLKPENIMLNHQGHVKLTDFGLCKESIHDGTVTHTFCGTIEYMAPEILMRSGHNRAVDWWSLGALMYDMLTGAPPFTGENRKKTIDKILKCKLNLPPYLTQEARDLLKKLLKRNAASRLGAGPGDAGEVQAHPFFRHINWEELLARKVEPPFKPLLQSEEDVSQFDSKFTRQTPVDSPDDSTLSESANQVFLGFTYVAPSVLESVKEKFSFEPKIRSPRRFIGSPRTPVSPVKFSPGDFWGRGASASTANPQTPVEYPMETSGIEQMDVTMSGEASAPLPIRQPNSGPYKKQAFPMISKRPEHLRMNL
- ASSAY REMARKS: Luciferase-coupled chemiluminescence kinase assay (ATP consumption)
- Format: biochemical
- CONDITION SUMMARY: Table 1; class symbols per key
- Description: One measure of inhibition is Ki. […] The Ki for a compound is determined from the IC50 based on three assumptions. First, only one compound molecule binds to the enzyme and there is no cooperativity. […] Kinase activity is measured as the percent of ATP consumed following the kinase reaction using luciferase-luciferin-coupled chemiluminescence. […] Total ATP consumption was limited to 25-60% and the IC50 values correlate well with those determined by radiometric assays.
ASSAY READOUT: IC50

>>> reported_result("Cc1c(CCCN2CCCCC2)cc(Cl)cc1N1CCN(c2ncnc3[nH]nc(Br)c23)CC1 [Entry 27]")
"< 0.1 µM"
>>> reported_result("CCc1n[nH]c2ncnc(N3CCN(c4cc(F)ccc4F)CC3)c12 [Entry 132]")
"0.1 to 1 µM"
>>> reported_result("N#Cc1cccnc1N1CCN(c2ncnc3[nH]nc(Br)c23)CC1 [Entry 127]")
"0.1 to 1 µM"
>>> reported_result("Cc1c(NCCN2CCCC2)cc(OCC(F)(F)F)cc1N1CCN(c2ncnc3[nH]nc(Br)c23)CC1 [Entry 285]")
"< 0.1 µM"
>>> reported_result("CC(=O)c1ccc(N2CCN(c3ncnc4[nH]nc(Br)c34)CC2)cc1 [Entry 94]")
"0.1 to 1 µM"
>>> reported_result("CCc1n[nH]c2ncnc(N3CCN(c4cc(Cl)cc(OCCN5CCCCC5)c4C)CC3)c12 [Entry 17]")
"< 0.1 µM"
>>> reported_result("Cc1ccc(Cl)cc1N1CCN(c2ncnc3[nH]nc(Br)c23)C[C@@H]1C [Entry 164]")
"< 0.1 µM"
>>> reported_result("CCc1n[nH]c2ncnc(N3CCN(c4cccc(OC)c4C)CC3)c12 [Entry 145]")
"< 0.1 µM"
>>> reported_result("Cc1c(NCCN2CCCC2)cc(-c2nccs2)cc1N1CCN(c2ncnc3[nH]nc(Br)c23)CC1 [Entry 233]")
"< 0.1 µM"
